- Test system: Fibroblast
- Method Notes: Multiplex assay against human fibroblast
- Assay type: toxicity, cell-based
- Experimental Parameters: 12 h, 1 µM, compound concentration 1 uM, replicate 2
Under this convention, satisfied denotes Population Mitotic Cells (%) strictly below 50% and not satisfied denotes Population Mitotic Cells (%) at or above 50%.

> print(dat)
                                    compound  system.under.test          group
 1  CCOc1ccn(-c2ccc(F)cc2)c(=O)c1C(=O)Nc1ccc(Oc2ccnc(N)c2Cl)c(F)c1         Fibroblast      satisfied
 2  CC(C)c1cc(Nc2nc(N3CCC[C@H](N)C3)ncc2C(N)=O)cc(C(C)C)n1         Fibroblast  not satisfied
 3  CN1C(=O)[C@@H](NC(=O)c2cc3ccccc3[nH]2)N=C(c2ccccc2)c2ccccc21 [DEVAZEPIDE]         Fibroblast  not satisfied
 4  CCOC(=O)CCNc1cc(N2CCc3ccccc3CC2)nc(-c2ccccn2)n1         Fibroblast      satisfied
 5  Cc1ccc(NC(=O)Nc2cc(C(F)(F)F)ccc2F)cc1Nc1ccc2c(c1)NC(=O)/C2=C\c1ccc[nH]1         Fibroblast      satisfied
 6  Cc1c(Nc2ccc(S(=O)(=O)N3CCN(C)CC3)cc2F)nc2ccc(Nc3cnn(C4CC4)c3)cn2c1=O         Fibroblast      satisfied
 7  CC(Cc1ccc(O)c(O)c1)C(C)Cc1ccc(O)c(O)c1 (stereo not drawn) [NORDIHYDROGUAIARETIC ACID]         Fibroblast  not satisfied
 8  Cc1c(P(=S)(c2ccccc2)c2ccccc2)n2ccccc2[n+]1C/C=C/c1ccccc1.[Br-]         Fibroblast      satisfied
 9  N#Cc1cccc(C(=O)Nc2cc(-c3ccccc3)nn2-c2ccccc2)c1         Fibroblast  not satisfied
10  CC[C@@H]1C(=O)N(C)c2cnc(Nc3ccc(C(=O)NC4CCN(C)CC4)cc3OC)nc2N1C1CCCC1         Fibroblast      satisfied
11  NC(=O)c1ccc2nc(-c3ccc(C4(N)CCC4)cc3)c(-c3ccccc3)n2n1         Fibroblast      satisfied
12  C=CC(=O)Nc1cc(-n2c(=O)ccc3cnc4ccc(-c5ccc(NS(C)(=O)=O)cc5)cc4c32)ccc1C         Fibroblast  not satisfied
13  N#CCNC(=O)c1ccc(-c2ccnc(Nc3ccc(N4CCOCC4)cc3)n2)cc1         Fibroblast      satisfied

* * *

- Test system: U2OS
- Method Notes: Multiplex assay against U2OS
- Assay type: toxicity, cell-based
- Experimental Parameters: human, 24 h, 1 µM, compound concentration 1 uM, replicate 2
Value Kind: Population Apoptotic (%)

> print(dat)
                                    compound  unit.tag  result
 1  CC(Cc1ccc(O)c(O)c1)C(C)Cc1ccc(O)c(O)c1 (configuration not stated) [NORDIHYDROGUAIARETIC ACID]         %       0
 2  Cc1c(Nc2ccc(S(=O)(=O)N3CCN(C)CC3)cc2F)nc2ccc(-c3cnn(C4CC4)c3)cn2c1=O         %      11
 3  CCCCN(CC)c1nc(C)nc2c1c(C)cn2-c1c(C)cc(C)cc1C.Cl         %      29
 4  N#Cc1cccc(C(=O)Nc2cc(-c3ccccc3)nn2-c2ccccc2)c1         %      14
 5  CCOC(=O)CCNc1cc(N2CCc3ccccc3CC2)nc(-c2ccccn2)n1         %      16
 6  CN1C(=O)[C@@H](NC(=O)c2cc3ccccc3[nH]2)N=C(c2ccccc2)c2ccccc21 [DEVAZEPIDE]         %      37
 7  Cc1c(P(=S)(c2ccccc2)c2ccccc2)n2ccccc2[n+]1C/C=C/c1ccccc1.[Br-]         %      75
 8  CCCCCNC(=N)N/N=C/c1c[nH]c2ccc(OC)cc12.O=C(O)/C=C\C(=O)O [TEGASEROD MALEATE]         %      87
 9  Cc1c(Nc2ccc(S(=O)(=O)N3CCN(C)CC3)cc2F)nc2ccc(Nc3cnn(C4CC4)c3)cn2c1=O         %      42
10  CN(c1cc(C(F)(F)F)nc(OCCC(=O)O)n1)c1cccc2c1CCC2         %       0
11  C[C@@H](Oc1cc(-n2cnc3ccc(CN4CCN(C)CC4)cc32)sc1C(N)=O)c1ccccc1C(F)(F)F [GSK-461364]         %      50
12  NC(=O)c1ccc2nc(-c3ccc(C4(N)CCC4)cc3)c(-c3ccccc3)n2n1 [BAY-1125976]         %      44
13  CCCc1cc(C)[nH]c(=O)c1CNC(=O)c1cc(-c2ccc(N3CCN(C(C)C)CC3)nc2)cc2c1cnn2C(C)C         %      33
14  Cc1ccc(NC(=O)Nc2cc(C(F)(F)F)ccc2F)cc1Nc1ccc2c(c1)NC(=O)/C2=C\c1ccc[nH]1         %      76
15  CC[C@@H]1C(=O)N(C)c2cnc(Nc3ccc(C(=O)NC4CCN(C)CC4)cc3OC)nc2N1C1CCCC1 [BI-2536]         %      55
16  CC[C@H](Nc1ncnc2[nH]cnc12)c1nc2cccc(F)c2c(=O)n1-c1ccccc1 [IDELALISIB]         %      42
17  CC(C)[C@H](CO)Nc1nc(Nc2cccc(Cl)c2)c2ncn(C(C)C)c2n1 [PURVALANOLA]         %      60
